Answer each item with its documented GI50.
test system: SF-539; assay: NCI tumour cell line growth inhibition, 48 h
Active and inactive are the calls of the source. Rule as the data show it: active = GI50 up to about 1.1 µM and inactive = higher.

The cases that follow already have their GI50 on record.
Query block: Find the recorded GI50 belonging to COc1ccc(SCc2cc(OCc3ccccc3)c(OCc3ccccc3)c(OCc3ccccc3)c2)cc1 and report it.
Result block: 1.93 µM (inactive)

Query block: Find the recorded GI50 belonging to O=c1c2cc3c(=O)n(CCc4ccccc4CO)c(=O)c3cc2c(=O)n1CCc1ccccc1CO and report it.
Result block: > 100 µM (inactive)

Query block: Find the recorded GI50 belonging to Cn1nc(S(N)(=O)=O)s/c1=N/C(N)=S and report it.
Result block: > 100 µM (inactive)

Query block: Find the recorded GI50 belonging to NCCC1([N+](=O)[O-])CCNCC1 and report it.
Result block: > 100 µM (inactive)

Query block: Find the recorded GI50 belonging to COC(=O)c1c(N)n[nH]c1N and report it.
Result block: > 100 µM (inactive)

Query block: Find the recorded GI50 belonging to COC(=O)C1c2c(c3ccccc3n2C(=O)OC)CCN2CCC1C(S(=O)(=O)c1ccccc1)C2=O (centres undefined) and report it.
Result block: > 100 µM (inactive)

Parameter requested: GI50. Apply to each item below.
1. CCOP(=O)(O)C(Nc1ccc(/N=N/c2ccccc2)cc1)c1ccc(C(Nc2ccc(/N=N/c3ccccc3)cc2)P(=O)(O)OCC)cc1 (centres undefined)
2. Cc1ccc(-c2c3nc(c(-c4ccc(C)cc4)c4ccc([nH]4)c(-c4ccc(OCC5COC(C)(C)O5)cc4)c4nc(c(-c5ccc(C)cc5)c5ccc2[nH]5)C=C4)C=C3)cc1 (centres undefined)

Result block:
1. 19.2 µM (inactive)
2. > 31.6 µM (inactive)

Query block: Find the recorded GI50 belonging to COc1cccc(/C=N/[N-]C(=S)Nc2ccccc2)c1[O-].O.[Zn+2] and report it.
Result block: 66.4 µM (inactive)

This collection of values is drawn from ChEMBL document CHEMBL1201862.
